Each recorded value in this set is attributed to ChEMBL document CHEMBL4689842.

System: Fibroblast
test details: Multiplex assay against human fibroblast
Assay type: toxicity, cell-based
condition notes: 48 h, 10 µM, compound concentration 10 uM, replicate 2
measured property: Population Fragmented Nuclei (%)
A bare number is not enough; add the unit after it.

*Q* Query (compound): CC(=O)c1cc(-c2cc(C(=O)NC3CC3)ccc2C)c2ncccn12 ; field requested: Population Fragmented Nuclei (%)
*A* 26%

*Q* Need Population Fragmented Nuclei (%), item O=C(O)c1ccc2cc(-c3ccc(O)c(C45CC6CC(CC(C6)C4)C5)c3)ccc2c1
*A* 37%

*Q* Name the recorded Population Fragmented Nuclei (%) for CC(C)N1CCC(C)(C)c2cc(C#Cc3ccc(C(=O)O)cc3)ccc21 .
*A* 93%

*Q* Any idea what its Population Fragmented Nuclei (%) is? The compound is COc1cc2c(NC3CCN(C(C)C)CC3)nc(N3CCC(F)(F)CC3)nc2cc1OCCCN1CCCC1
*A* 22%

*Q* What measured Population Fragmented Nuclei (%) goes with COc1cc(N2CCC(N(C)C)CC2)ccc1Nc1ncc(Cl)c(Nc2ccccc2P(C)(C)=O)n1 ?
*A* 34%

Please give Population Fragmented Nuclei (%), item by item, for the list that follows.
1. CCC(=O)O[C@]1(C(=O)SCF)[C@H](C)C[C@H]2[C@@H]3C[C@H](F)C4=CC(=O)C=C[C@]4(C)[C@@]3(F)[C@@H](O)C[C@@]21C [FLUTICASONE PROPIONATE]
2. COc1ccc(NS(=O)(=O)c2sc3ccc(Cl)cc3c2C)cc1N1CCNCC1.Cl
3. Cl.Cl.Nc1ncnc2c1c(-c1cccc(OCc3ccccc3)c1)cn2[C@H]1C[C@@H](CN2CCC2)C1

*A*
1: 29%; 2: 34%; 3: 14%

###

System: Fibroblast
test details: Multiplex assay against human fibroblast
Assay type: toxicity, cell-based
condition notes: 12 h, 1 µM, compound concentration 1 uM, replicate 2
measured property: Population Mitotic Cells (%)
One number for each entry, in %.

Examples with answers:
*Q* Hello, I am looking for reported Population Mitotic Cells (%) with Fibroblast for CNC(=O)c1nn(C)c2c1C(C)(C)Cc1cnc(Nc3ccc(N4CCN(C)CC4)cc3)nc1-2 [MILCICLIB] . Could you help?
*A* 0

*Q* Please tell me: Population Mitotic Cells (%) of Nc1nc2c(c(N3CCNCC3)n1)CCC1=C2[C@@H]2CCCC[C@@H]2O1 , system Fibroblast?
*A* 100

*Q* Hi! What's the reported Population Mitotic Cells (%) for COc1ccc(NS(=O)(=O)c2sc3ccc(Cl)cc3c2C)cc1N1CCNCC1.Cl on Fibroblast?
*A* 71

Here are 5 compounds. What values of Population Mitotic Cells (%) were reported for them?
1. COc1cc(N2CCC(N(C)C)CC2)ccc1Nc1ncc(Cl)c(Nc2ccccc2P(C)(C)=O)n1
2. N#Cc1cnc(Nc2cc(NC[C@H]3CNCCO3)c(C(F)(F)F)cn2)cn1 [SRA-737]
3. Cl.Cl.NC1(c2ccc(-c3nc4ccn5c(=O)[nH]nc5c4cc3-c3ccccc3)cc2)CCC1
4. CC(C)N1CCC(C)(C)c2cc(C#Cc3ccc(C(=O)O)cc3)ccc21
5. CN(C)C/C=C/C(=O)Nc1cc2c(Nc3ccc(F)c(Cl)c3)ncnc2cc1O[C@H]1CCOC1.O=C(O)/C=C\C(=O)O.O=C(O)/C=C\C(=O)O [AFATINIB DIMALEATE]

*A*
[57, 62, 12, 80, 54]

# map each compound to its Population Mitotic Cells (%)
1. CC(C)(C)c1cnc(CSc2cnc(NC(=O)C3CCNCC3)s2)o1 [BMS-387032]
2. c1ccc2oc(-c3csc(C4CCN(Cc5nc6ncccc6[nH]5)CC4)n3)cc2c1
3. CC(=O)c1cc(-c2cc(C(=O)NC3CC3)ccc2C)c2ncccn12

*A*
1: 50; 2: 75; 3: 33

Give me Population Mitotic Cells (%) for each of these compounds, listed below.
1. Cc1cc2c(cc1N1C(=O)c3cccc4c(CCCO)ccc(c34)C1=O)n(C)c(=O)n2C
2. COc1cc2c(NC3CCN(C(C)C)CC3)nc(N3CCC(F)(F)CC3)nc2cc1OCCCN1CCCC1
3. O=C(O)c1ccc2cc(-c3ccc(O)c(C45CC6CC(CC(C6)C4)C5)c3)ccc2c1 [O-DEMETHYLATED ADAPALENE]
4. CCc1cc2c(cc1CC)CC(NC[C@H](O)c1ccc(O)c3[nH]c(=O)ccc13)C2 [INDACATEROL]
5. CCn1c(-c2nonc2N)nc2cnc(Oc3cccc(NC(=O)c4ccc(OCCN5CCOCC5)cc4)c3)cc21 [GSK-269962A]
6. COc1cc2c(Nc3ccc(NC(=O)c4ccccc4)cc3)ncnc2cc1OCCCN1CCOCC1
7. CCOc1cc(N2CCC(O)CC2)ccc1Nc1ncc2c(n1)N(C1CCCC1)CCC(=O)N2C

*A*
1: 100; 2: 70; 3: 0; 4: 66; 5: 80; 6: 66; 7: 100

Each compound below has a reported value. Please supply its Population Mitotic Cells (%).
1. Nc1ccc(C(=O)Nc2cccc(-c3nc(N4CCOCC4)c4oc5ncccc5c4n3)c2)cn1
2. CN(C)CCOc1ccc(-c2nc(-c3ccncc3)c(-c3ccc4c(c3)CC/C4=N\O)[nH]2)cc1 [SB590885]

*A*
[90, 12]

Fill in Population Mitotic Cells (%) for each of the 2 compounds listed.
1. Cc1nc(Cc2cccc(C(F)(F)F)c2)sc1-c1ccc(C(N)=O)nc1 [TP-024n]
2. Cc1cn(-c2cc(NC(=O)c3ccc4c(c3)CN(c3cncnc3)C[C@@H]4C)cc(C(F)(F)F)c2)cn1

*A*
50
57

For each of the compounds below, state Population Mitotic Cells (%).
1. CC(C)Oc1ccc(C(=O)N[C@H](CNC(=O)CN(C)C)Cc2ccc(-c3cn4cccc([C@H](C)O)c4n3)cc2)cc1Cl [GSK-923295A]
2. CNc1oc(-c2cccc3ccccc23)nc1C#N
3. CNC(=O)c1cc(Oc2ccc(NC(=O)Nc3cc(C(C)(C)C)nn3-c3ccc4ncccc4c3)c(F)c2)ccn1 [REBASTINIB]
4. Cl.Cl.Nc1ncnc2c1c(-c1cccc(OCc3ccccc3)c1)cn2[C@H]1C[C@@H](CN2CCC2)C1
5. CCOc1cc2ncc(C#N)c(Nc3ccc(OCc4cccc(F)c4)c(Cl)c3)c2cc1NC(=O)/C=C/CN(C)C [HKI-357]
6. CCCn1c(=O)c2[nH]c(C34CC5CC(CC3C5)C4)nc2n(CCC)c1=O [ROLOFYLLINE]

*A*
1: 0; 2: 100; 3: 60; 4: 70; 5: 66; 6: 28
